Data origin, for the record: patent US20250235434A1

// values below are MIC; system is M. avium (ATCC 25291)
Field format: number, assumed µg/mL, no unit text.

// lookup MIC for CO[C@H]1/C=C/O[C@@]2(C)Oc3c(C)c(O)c4c(c3C2=O)C2=NC3(CCN(CC(C)C)CC3)NC2=C(NC(=O)/C(C)=C\C=C\[C@H](C)[C@H](O)[C@@H](C)[C@@H](O)[C@@H](C)[C@H](OC(=O)CN2CCC(n3c(=O)[nH]c5cc(Cl)ccc53)CC2)[C@@H]1C)C4=O [Compound 19]
4

// lookup MIC for CO[C@H]1/C=C/O[C@@]2(C)Oc3c(C)c(O)c4c(c3C2=O)C2=NC3(CCN(CC(C)C)CC3)NC2=C(NC(=O)/C(C)=C\C=C\[C@H](C)[C@H](O)[C@@H](C)[C@@H](O)[C@@H](C)[C@H](OC(=O)CN2CCN(C)CC2)[C@@H]1C)C4=O [Compound 6]
1.3

###

# System: M. avium (ATCC 25291)
Binary label based on MIC with cut-off 1 µg/mL: below gives true (1), not below gives false (0).

Consider CO[C@H]1/C=C/O[C@@]2(C)Oc3c(C)c(O)c4c(c3C2=O)C2=NC3(CCN(CC(C)C)CC3)NC2=C(NC(=O)/C(C)=C\C=C\[C@H](C)[C@H](O)[C@@H](C)[C@@H](O)[C@@H](C)[C@H](OC(=O)CN2CCC(O)(Cc3ccccc3)CC2)[C@@H]1C)C4=O . Does its MIC lie strictly below 1 µg/mL?
false (0)

Consider CO[C@H]1/C=C/O[C@@]2(C)Oc3c(C)c(O)c4c(c3C2=O)C2=NC3(CCN(CC(C)C)CC3)NC2=C(NC(=O)/C(C)=C\C=C\[C@H](C)[C@H](O)[C@@H](C)[C@@H](O)[C@@H](C)[C@H](OC(=O)CNC2CCN(C)CC2)[C@@H]1C)C4=O . Does its MIC lie strictly below 1 µg/mL?
false (0)

Consider CO[C@H]1/C=C/O[C@@]2(C)Oc3c(C)c(O)c4c(c3C2=O)C2=NC3(CCN(CC(C)C)CC3)NC2=C(NC(=O)/C(C)=C\C=C\[C@H](C)[C@H](O)[C@@H](C)[C@@H](O)[C@@H](C)[C@H](OC(=O)CN2CCC(NS(=O)(=O)c3ccccc3)CC2)[C@@H]1C)C4=O . Does its MIC lie strictly below 1 µg/mL?
true (1)

Consider CO[C@H]1/C=C/O[C@@]2(C)Oc3c(C)c(O)c4c(c3C2=O)C2=NC3(CCN(CC(C)C)CC3)NC2=C(NC(=O)/C(C)=C\C=C\[C@H](C)[C@H](O)[C@@H](C)[C@@H](O)[C@@H](C)[C@H](OC(=O)CNCCCN(C)C)[C@@H]1C)C4=O . Does its MIC lie strictly below 1 µg/mL?
false (0)

Consider CO[C@H]1/C=C/O[C@@]2(C)Oc3c(C)c(O)c4c(c3C2=O)C2=NC3(CCN(CC(C)C)CC3)NC2=C(NC(=O)/C(C)=C\C=C\[C@H](C)[C@H](O)[C@@H](C)[C@@H](O)[C@@H](C)[C@H](OC(=O)CN2CCC(Oc3ccccc3)CC2)[C@@H]1C)C4=O . Does its MIC lie strictly below 1 µg/mL?
true (1)

Consider CO[C@H]1/C=C/O[C@@]2(C)Oc3c(C)c(O)c4c(c3C2=O)C2=NC3(CCN(CC(C)C)CC3)NC2=C(NC(=O)/C(C)=C\C=C\[C@H](C)[C@H](O)[C@@H](C)[C@@H](O)[C@@H](C)[C@H](OC(C)=O)[C@@H]1C)C4=O . Does its MIC lie strictly below 1 µg/mL?
true (1)

Consider CO[C@H]1/C=C/O[C@@]2(C)Oc3c(C)c(O)c4c(c3C2=O)C2=NC3(CCN(CC(C)C)CC3)NC2=C(NC(=O)/C(C)=C\C=C\[C@H](C)[C@H](O)[C@@H](C)[C@@H](O)[C@@H](C)[C@H](OC(=O)CN2CCC(N3CCCCC3)CC2)[C@@H]1C)C4=O . Does its MIC lie strictly below 1 µg/mL?
false (0)
